tgt: BRD4 (BDI_K57-E168) (Homo sapiens, UniProt O60885)
Construct: BD1: amino acids K57-E168
protocol.notes: TR-FRET bromodomain binding assay, first bromodomain of BRD4
condition.context: His-tagged BD1, 100 nM Alexa647 probe; TR-FRET protocol A-E given per row
Procedure: A time-resolved fluorescence resonance energy transfer (TR-FRET) assay was used to determine the affinities of compounds of the Examples listed in Table 1 for each bromodomain of BRD4. His-tagged first (BD1: amino acids K57-E168) and second (BD2: amino acids E352-E168) bromodomains of BRD4 were expressed and purified. […] After a one-hour equilibration at room temperature, TR-FRET ratios were determined using an Envision multilabel plate reader (Ex 340, Em 495/520). […]
Reported pKi values are given for each entry in this list.
// field semantics: pKi = negative decimal log of concentration (mol/L)

See these solved cases before continuing.
smiles: Cn1cc(-c2cc(S(C)(=O)=O)ccc2OCC2CCOCC2)c2cc[nH]c(=O)c21
pKi: 7.68
//
smiles: CCS(=O)(=O)Nc1ccc(OC2CCOCC2)c(-c2cn(C)c3c(=O)[nH]ccc23)c1
pKi: 8.40
//
smiles: CCS(=O)(=O)Nc1ccc(Oc2ccc(F)cc2F)c(-c2cn(C)c3c(=O)[nH]c(C(=O)NCCN4CCCCC4)cc23)c1
pKi: 8.50
//
smiles: Cn1cc(-c2cc(S(C)(=O)=O)ccc2OCC2CCC2)c2cc[nH]c(=O)c21
pKi: 8.03
//
smiles: Cn1cc(-c2cc(S(C)(=O)=O)ccc2OCC(C)(C)C)c2cc[nH]c(=O)c21
pKi: 8.10

Prompt line: Item under review: `CCS(=O)(=O)c1ccc(Oc2ccc(OC)cc2Cl)c(-c2cn(C)c3c(=O)[nH]ccc23)c1` . Reported pKi?
Response line: 7.36

Prompt line: Item under review: `Cn1cc(-c2ccccc2Oc2ccccc2)c2cc[nH]c(=O)c21` . Reported pKi?
Response line: 7.07

Prompt line: Item under review: `Cn1cc(-c2cc(NC(=O)c3ccc(COc4ccccc4)cc3)ccc2Oc2ccc(F)cc2F)c2cc[nH]c(=O)c21` . Reported pKi?
Response line: 6.22

* * *

Test system: breast cancer cell line MX-1
protocol.notes: MX-1 cell line proliferation assay
Type: cell-based
condition.context: Homo sapiens, MX1, 72 h, MX-1 cells, 3-day proliferation assay, Cell Titer Glo; read-out: Cellular proliferation EC50
Procedure: The impact of compounds of the Examples on cancer cell proliferation was determined using the breast cancer cell line MX-1 (ATCC) in a 3-day proliferation assay and the data are reported in Table 1. […] Luminescence readings from the Cell Titer Glo assay were normalized to the DMSO treated cells and analyzed using the GraphPad Prism software with sigmoidal curve fitting to obtain EC50s. […]
assay.readout: log10(EC50) (log10 of the value in nM)
Quick note: numbers are log10 of EC50, with nM as the unit.

compound: CCS(=O)(=O)Nc1ccc(Oc2ccc(F)cc2F)c(-c2cn(C)c3c(=O)[nH]c(C(=O)NCCCn4ccnc4)cc23)c1
tgt: breast cancer cell line MX-1
log10(EC50): 1.81

compound: Cn1cc(-c2cc(CS(=O)(=O)N3CCCCC3)ccc2Oc2ccc(F)cc2F)c2cc[nH]c(=O)c21
tgt: breast cancer cell line MX-1
log10(EC50): 1.95

compound: Cn1cc(-c2cc(CN3CCC(N)CC3)ccc2Oc2ccc(F)cc2F)c2cc[nH]c(=O)c21
tgt: breast cancer cell line MX-1
log10(EC50): 2.85

compound: CCS(=O)(=O)Nc1ccc(OC2CCC(F)(F)CC2)c(-c2cn(C)c3c(=O)[nH]ccc23)c1
tgt: breast cancer cell line MX-1
log10(EC50): 1.52

Prompt line: Item under review: `CCS(=O)(=O)c1ccc(Oc2ccc(F)cc2F)c(-c2cn(C)c3c(=O)[nH]c(/C=C(\Cl)CCO)cc23)c1` . Reported log10(EC50)?
Response line: 1.91

Prompt line: Item under review: `COC1CCN(Cc2ccc(Oc3ccc(F)cc3F)c(-c3cn(C)c4c(=O)[nH]ccc34)c2)CC1` . Reported log10(EC50)?
Response line: 3.15

* * *

tgt: BRD4 (BDI_K57-E168) (Homo sapiens, UniProt O60885)
Construct: BD1: amino acids K57-E168
protocol.notes: TR-FRET bromodomain binding assay, first bromodomain of BRD4
condition.context: His-tagged BD1, 100 nM Alexa647 probe; TR-FRET protocol A-E given per row
Experimental: A time-resolved fluorescence resonance energy transfer (TR-FRET) assay was used to determine the affinities of compounds of the Examples listed in Table 1 for each bromodomain of BRD4. His-tagged first (BD1: amino acids K57-E168) and second (BD2: amino acids E352-E168) bromodomains of BRD4 were expressed and purified. […] After a one-hour equilibration at room temperature, TR-FRET ratios were determined using an Envision multilabel plate reader (Ex 340, Em 495/520). […]
Reported pKi values are given for each entry in this list.
// field semantics: pKi = negative decimal log of concentration (mol/L)

See these solved cases before continuing.
compound: CC(C)CCC(=O)Nc1ccc(Oc2ccc(F)cc2F)c(-c2cn(C)c3c(=O)[nH]ccc23)c1
tgt: BRD4 (BDI_K57-E168) (Homo sapiens, UniProt O60885)
pKi: 7.23
--
compound: Cn1cc(-c2cc(NC(=O)c3cc(Cl)ccc3Cl)ccc2Oc2ccc(F)cc2F)c2cc[nH]c(=O)c21
tgt: BRD4 (BDI_K57-E168) (Homo sapiens, UniProt O60885)
pKi: 7.19

Prompt line: Item under review: `CCS(=O)(=O)Nc1ccc(Oc2ccc(F)cc2F)c(-c2cn(C)c3c(=O)[nH]c(C(=O)NCCN4CCOCC4)cc23)c1` . Reported pKi?
Response line: 8.78

Prompt line: Item under review: `Cn1cc(-c2cc(CN3CCNCC3)ccc2Oc2ccc(F)cc2F)c2cc[nH]c(=O)c21` . Reported pKi?
Response line: 6.28

Prompt line: Item under review: `Cn1cc(-c2cc(NC(=O)Cn3cc(-c4ccccc4F)cn3)ccc2Oc2ccc(F)cc2F)c2cc[nH]c(=O)c21` . Reported pKi?
Response line: 6.67

Prompt line: Item under review: `CCS(=O)(=O)c1ccc(Oc2ccc(C#N)cc2OC)c(-c2cn(C)c3c(=O)[nH]ccc23)c1` . Reported pKi?
Response line: 7.25

* * *

tgt: BRD4 (BDII_E352-M457) (Homo sapiens, UniProt O60885)
Construct: proliferation; Protocol
protocol.notes: TR-FRET bromodomain binding assay, second bromodomain of BRD4
condition.context: His-tagged BD2, 30 nM Alexa647 probe; TR-FRET protocol A-E given per row
assay.readout: log10 Ki (log10 of the value in nM)
Quick note: numbers are log10 of Ki, with nM as the unit.

See these solved cases before continuing.
smiles: Cn1cc(-c2cc(NC(=O)Cc3cccc(Oc4ccccc4)c3)ccc2Oc2ccc(F)cc2F)c2cc[nH]c(=O)c21
assay.value: 2.92

smiles: Cn1cc(-c2cc(S(C)(=O)=O)ccc2OCCCC2CCCC2)c2cc[nH]c(=O)c21
assay.value: 2.87

smiles: Cn1cc(-c2cc(NCc3ccccc3C#N)ccc2Oc2ccc(F)cc2F)c2cc[nH]c(=O)c21
assay.value: 2.38

smiles: Cn1cc(-c2cc(NCc3c(F)cccc3F)ccc2Oc2ccc(F)cc2F)c2cc[nH]c(=O)c21
assay.value: 2.45

smiles: Cn1cc(-c2ccccc2Oc2ccccc2)c2cc[nH]c(=O)c21
assay.value: 2.50

Prompt line: Item under review: `Cn1cc(-c2cc(CS(C)(=O)=O)ccc2Oc2ccc(F)cc2F)c2cc[nH]c(=O)c21` . Reported log10 Ki?
Response line: 0.85

Prompt line: Item under review: `Cn1cc(-c2cc(CN)ccc2Oc2ccc(F)cc2F)c2cc[nH]c(=O)c21` . Reported log10 Ki?
Response line: 3.12

Prompt line: Item under review: `Cn1cc(-c2c(OCC3CC3)ccc3cc[nH]c23)c2cc[nH]c(=O)c21` . Reported log10 Ki?
Response line: 3.31

Prompt line: Item under review: `Cn1cc(-c2cc(NCc3ccc(Oc4ccccc4)cc3)ccc2Oc2ccc(F)cc2F)c2cc[nH]c(=O)c21` . Reported log10 Ki?
Response line: 2.89

Prompt line: Item under review: `Cn1cc(-c2cc(NCc3ccnc4ccccc34)ccc2Oc2ccc(F)cc2F)c2cc[nH]c(=O)c21` . Reported log10 Ki?
Response line: 2.36

Prompt line: Item under review: `CCS(=O)(=O)Nc1ccc(Oc2ccc(F)cc2)c(-c2cn(C)c3c(=O)[nH]ccc23)c1` . Reported log10 Ki?
Response line: 1.08

* * *

tgt: BRD4 (BDI_K57-E168) (Homo sapiens, UniProt O60885)
Construct: BD1: amino acids K57-E168
protocol.notes: TR-FRET bromodomain binding assay, first bromodomain of BRD4
condition.context: His-tagged BD1, 100 nM Alexa647 probe; TR-FRET protocol A-E given per row
Group membership follows Ki per the scheme lo: < 9 nM; med: ≥ 9 nM and < 80 nM; hi: ≥ 80 nM

Observe how each entry below is paired with its result.
compound: CCS(=O)(=O)C(C)(C)c1ccc(Oc2ccc(F)cc2F)c(-c2cn(C)c3c(=O)[nH]ccc23)c1 [Example 54]
tgt: BRD4 (BDI_K57-E168) (Homo sapiens, UniProt O60885)
category: lo
//
compound: CN(C)C1CCN(Cc2ccc(Oc3ccc(F)cc3F)c(-c3cn(C)c4c(=O)[nH]ccc34)c2)CC1 [Example 113]
tgt: BRD4 (BDI_K57-E168) (Homo sapiens, UniProt O60885)
category: hi
//
compound: CCS(=O)(=O)Nc1ccc(Oc2ccc(F)cc2F)c(-c2cn(C)c3c(=O)[nH]c(C(=O)NCc4cccnc4)cc23)c1 [Example 192]
tgt: BRD4 (BDI_K57-E168) (Homo sapiens, UniProt O60885)
category: lo
//
compound: Cn1cc(-c2cc(NCc3cccc(C#N)c3)ccc2Oc2ccc(F)cc2F)c2cc[nH]c(=O)c21 [Example 172]
tgt: BRD4 (BDI_K57-E168) (Homo sapiens, UniProt O60885)
category: med
//
compound: CCS(=O)(=O)Nc1ccc(Oc2ccc(F)cc2F)c(-c2cn(C)c3c(=O)[nH]c(C(=O)NCC4CCOC4)cc23)c1 (stereo not drawn) [Example 199]
tgt: BRD4 (BDI_K57-E168) (Homo sapiens, UniProt O60885)
category: lo

Prompt line: Pick a category. Item: Cn1cc(-c2cc(S(C)(=O)=O)ccc2OCC2CCC(F)(F)CC2)c2cc[nH]c(=O)c21 [Example 41]
Response line: med

Prompt line: Pick a category. Item: Cn1cc(-c2cc(CCl)ccc2Oc2ccc(F)cc2F)c2cc[nH]c(=O)c21 [Example 120]
Response line: med

Prompt line: Pick a category. Item: CCS(=O)(=O)Nc1ccc(Oc2ccc(F)cc2F)c(-c2cn(C)c3c(=O)[nH]ccc23)c1 [Example 4]
Response line: lo

Prompt line: Pick a category. Item: Cc1ncc(CC(=O)Nc2ccc(Oc3ccc(F)cc3F)c(-c3cn(C)c4c(=O)[nH]ccc34)c2)s1 [Example 163]
Response line: med

Prompt line: Pick a category. Item: Cn1cc(-c2cc(S(=O)(=O)N3CC(F)(F)C3)ccc2OCC2CC2)c2cc[nH]c(=O)c21 [Example 125]
Response line: med
